# measurement notes: Restrictive medium S. cerevisiae growth inhibition, OD615, pilot screen of yeast lifespan reduction project, restrictive growth control (AID 706);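 note: modified DeaD lifespan yeast strain shifted to restrictive glucose medium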
# experimental parameters: OD615, 48 h, at 10 µM, stronger effect = higher value
quantity: growth inhibition (%)
I only need the number, in %, no unit after it.

[ask] For O=C(NCCCN1CCN(c2ccccc2F)CC1)C1CCCN(S(=O)(=O)c2cnc[nH]2)C1 (stereo unspecified) , what is its reported growth inhibition?
[reply] 2.15

[ask] "CC(C)NC(=O)CCCc1ccccc1" , same question.
[reply] -14.1

[ask] "CCC(=O)Nc1cc(C)c(NC(=O)c2ccco2)cn1" , same question.
[reply] -13.9

[ask] "NC(=O)c1oc2ccccc2c1NC(=O)CCc1ccccc1" , same question.
[reply] 2.84

[ask] "CCCn1c(CNS(=O)(=O)c2ccc(C)cc2)nc2ccccc21" , same question.
[reply] 7.18

[ask] "CC1CCN(C(=O)CNC(=O)Cn2ccc3ccccc3c2=O)CC1" , same question.
[reply] -0.685

[ask] CCOC(=O)CN1CC23C=CC(O2)C(C(=O)Nc2ccc4c(c2)OCO4)C3C1=O (stereo unspecified) , same question.
[reply] 3.22

[ask] Cc1ccc2c(c1)c(C)c(C)n2CC(O)Cn1nc(C)cc1C (stereo unspecified) , same question.
[reply] 3.35

[ask] "Cc1ccc(-n2nnc3c(=O)n(CC(=O)NCc4ccco4)cnc32)cc1" , same question.
[reply] 2.02

[ask] "O=C(Nc1ccc(Br)cc1Cl)c1cnccn1" , same question.
[reply] -0.415

[ask] "C=CCNC(=O)c1ccc2c(c1)nnn2C" , same question.
[reply] -12.7

* * *

# measurement notes: inhibitors of the yeast RAM network, pilot screen, dse1pr::URA3 reporter, 5-FOA selection (AID 869);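 note: 0% = DMSO wells with no growth and 100% = 10 µM 1-NA-PP1 with full growth; RAM network block rescues cells from 5-FOA so hits raise OD615 growth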
# experimental parameters: S. cerevisiae dse1pr::URA3 5-FOA growth, OD615, 2 d; at 10 µM; stronger effect = higher value; strain carries analog-sensitive mutant Cbk1 kinase
Below: a set of entries, each annotated with reported inhibition.
I only need the number, in %, no unit after it.

Cc1ccccc1NC(=O)c1cnn(-c2ccccc2)c1NC(=O)c1ccco1 ... 0.855
O=S(=O)(Cc1ccccc1)N1CCc2ccccc2C1 ... 3.92
CCOC(=O)CN1CC23C=CC(O2)C(C(=O)NCc2ccc(C)cc2)C3C1=O (centres undefined) ... 1.29
O=C(Cn1c(CN2CCCCC2)nc2ccccc2c1=O)NC1CCCCC1 ... -0.59
O=C1CC(c2cccs2)CC(O)=C1C=NCCN1CCNCC1 (centres undefined) ... 0.995
Cc1cccc(NC(=O)C2C(C(=O)O)C3C=CC2C32CC2)c1C (centres undefined) ... 1.42
CCCCNC(=O)CS(=O)Cc1nc(-c2cccc(C)c2)oc1C (centres undefined) ... 1.14
COc1ccc(OC)c(C2CC(=O)N3CN(c4cccc(Cl)c4C)CSC3=C2C#N)c1 (centres undefined) ... 1.87

[ask] For "CC1=CC(C)(C)N(C(=O)CSc2nnc(-c3ccccc3)o2)c2ccc(C)cc21" , what is its reported inhibition?
[reply] 0.325

[ask] "CC(=O)Nc1ccc(S(=O)(=O)NCCSCc2ccco2)cc1" , same question.
[reply] 2.15

[ask] "Cc1ccc(C)c(N2CCN(c3ncnc4c3cnn4-c3ccccc3)CC2)c1" , same question.
[reply] 3.82

[ask] COc1cccc(C(c2sc3ncnn3c2O)N2CC(C)OC(C)C2)c1 (centres undefined) , same question.
[reply] 1.34

[ask] COc1ccc(C2CC(=O)c3cnc(NC(=O)c4ccccc4)nc3C2)cc1OC (centres undefined) , same question.
[reply] 0.895
